The origin of these recorded values is paper PMC2756588.

# Lookup of reported SPOT intensity keyed by entry
# assayed-system: T1, Sla1-2, P32790
# T1 sequence (P32790 60-140, looked up): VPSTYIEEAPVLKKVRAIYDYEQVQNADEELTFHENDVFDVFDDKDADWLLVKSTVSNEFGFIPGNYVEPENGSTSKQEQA
# test-details: SPOT array
# condition-set: median of control spots 712

{"binder": "TPTSGPPLLPPRNTM", "SPOT intensity": 1}
{"binder": "LSKRLPLRFPEHTSS", "SPOT intensity": 0}
{"binder": "KTRLRPAFIQQLWSS", "SPOT intensity": 0}
{"binder": "SKAKRPKFLLDLQIK", "SPOT intensity": 2}
